# Experimental Target: Ribonucleotide reductase (Homo sapiens, UniProt P23921+Q7LG56)
# Sequence (P23921 whole entry, looked up): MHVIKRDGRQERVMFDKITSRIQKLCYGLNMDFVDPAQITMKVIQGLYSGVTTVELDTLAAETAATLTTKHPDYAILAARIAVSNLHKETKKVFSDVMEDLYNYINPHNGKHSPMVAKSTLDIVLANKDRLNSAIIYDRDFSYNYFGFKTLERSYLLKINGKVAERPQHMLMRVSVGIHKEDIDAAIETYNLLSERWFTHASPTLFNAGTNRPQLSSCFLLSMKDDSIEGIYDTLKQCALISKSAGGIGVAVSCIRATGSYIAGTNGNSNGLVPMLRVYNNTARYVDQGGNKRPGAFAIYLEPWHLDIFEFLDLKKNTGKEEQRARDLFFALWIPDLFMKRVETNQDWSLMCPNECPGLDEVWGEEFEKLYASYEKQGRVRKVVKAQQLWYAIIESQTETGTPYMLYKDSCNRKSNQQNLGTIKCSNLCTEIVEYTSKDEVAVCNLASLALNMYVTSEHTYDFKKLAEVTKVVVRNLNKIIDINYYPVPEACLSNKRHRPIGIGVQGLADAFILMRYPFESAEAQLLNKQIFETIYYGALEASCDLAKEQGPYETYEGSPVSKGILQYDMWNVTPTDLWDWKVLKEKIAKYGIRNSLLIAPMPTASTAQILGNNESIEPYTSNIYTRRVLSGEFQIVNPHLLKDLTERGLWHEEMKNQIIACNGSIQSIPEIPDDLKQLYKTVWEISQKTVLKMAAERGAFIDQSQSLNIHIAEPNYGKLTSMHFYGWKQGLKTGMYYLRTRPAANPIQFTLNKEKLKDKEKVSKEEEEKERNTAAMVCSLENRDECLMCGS
# Sequence (Q7LG56 whole entry, looked up): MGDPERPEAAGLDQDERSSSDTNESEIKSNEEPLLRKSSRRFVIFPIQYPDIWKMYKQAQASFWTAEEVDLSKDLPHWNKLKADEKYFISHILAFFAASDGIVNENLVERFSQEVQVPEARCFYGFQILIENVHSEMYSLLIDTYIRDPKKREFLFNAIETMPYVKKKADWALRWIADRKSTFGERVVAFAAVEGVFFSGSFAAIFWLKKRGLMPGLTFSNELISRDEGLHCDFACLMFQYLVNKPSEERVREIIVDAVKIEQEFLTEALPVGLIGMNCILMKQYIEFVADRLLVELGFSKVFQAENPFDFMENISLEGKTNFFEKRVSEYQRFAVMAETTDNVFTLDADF
# Protocol: Human RNR Inhibition Effect: The inhibitory activity against the ribonucleotide reduction reaction (hereinafter referred to as RNR reaction) of the test compound was determined by measuring the formation of deoxycytidine diphosphate (hereinafter referred to as dCDP) from cytidine diphosphate (hereinafter referred to as CDP) by the following method.Human M1 subunit and human M2 subunit (mutant …
pIC50: −log10 of the molar value.
Measure Name: pIC50

Check out these entries, answers already filled in.
# Compound, Recorded Measurement
data = [
    ("Cc1ccc(F)c([C@@H](C)[C@H](NS(=O)(=O)c2ccc3c(c2)C(C)(O)CCO3)c2n[nH]c(=O)o2)c1C (stereo partly drawn)", 6.74),
    ("COc1ncc(-c2ccc(F)c([C@@H](C)[C@H](NS(=O)(=O)c3ccc(Cl)cc3OC)c3n[nH]c(=O)o3)c2C)cn1", 6.55),
    ("Cc1ccc(F)c([C@@H](C)[C@H](NS(=O)(=O)c2ccc(Cl)cc2N)c2n[nH]c(=O)o2)c1C", 6.64),
    ("Cc1ccc(F)c([C@@H](C)[C@H](NS(=O)(=O)c2ccc3c(c2)C(=O)CCO3)c2n[nH]c(=O)o2)c1C", 6.55),
    ("CNC(=O)c1cc(Cl)ccc1S(=O)(=O)N[C@H](c1n[nH]c(=O)o1)[C@H](C)c1c(F)ccc(C)c1C", 6.43),
]

a. Cc1cccc([C@@H](C)[C@H](NS(=O)(=O)c2ccc(Br)cc2C(N)=O)c2n[nH]c(=O)o2)c1C
b. COc1c(S(=O)(=O)N[C@H](c2n[nH]c(=O)o2)[C@H](C)c2c(F)ccc3ccccc23)ccc(Cl)c1C(C)O (stereo partly drawn)
c. Cc1ccc(F)c([C@@H](C)[C@H](NS(=O)(=O)c2cc(C(=O)O)c(Cl)cc2C(N)=O)c2n[nH]c(=O)o2)c1C
Prompt: rank_up(items): orders items by reported pIC50 in ascending numerical order. Could you list the labels in the order requested?
Response: a, c, b

###

# Experimental Target: Ribonucleotide reductase (Homo sapiens, UniProt P23921+Q7LG56)
# Protocol: Human RNR Inhibition Effect: The inhibitory activity against the ribonucleotide reduction reaction (hereinafter referred to as RNR reaction) of the test compound was determined by measuring the formation of deoxycytidine diphosphate (hereinafter referred to as dCDP) from cytidine diphosphate (hereinafter referred to as CDP) by the following method.Human M1 subunit and human M2 subunit (mutant …
pIC50: −log10 of the molar value.
Measure Name: pIC50

Check out these entries, answers already filled in.
# Compound, Experimental Target, Recorded Measurement
measured = [
    ("Cc1cccc2cccc([C@@H](C)[C@H](NS(=O)(=O)c3ccc(Cl)c4c3OCCC4O)c3n[nH]c(=O)o3)c12 (stereo not given in full)", "Ribonucleotide reductase (Homo sapiens, UniProt P23921+Q7LG56)", 6.64),
    ("Cc1ccc(F)c([C@@H](C)[C@H](NS(=O)(=O)c2cc(C(C)(C)O)ccc2C(N)=O)c2n[nH]c(=O)o2)c1C", "Ribonucleotide reductase (Homo sapiens, UniProt P23921+Q7LG56)", 7.22),
    ("Cc1ccc(F)c([C@@H](C)[C@H](NS(=O)(=O)c2ccc(Cl)cc2-c2ccno2)c2n[nH]c(=O)o2)c1C", "Ribonucleotide reductase (Homo sapiens, UniProt P23921+Q7LG56)", 6.64),
    ("COc1c(S(=O)(=O)N[C@H](c2n[nH]c(=O)o2)[C@H](C)c2c(F)ccc(C)c2C)ncc(Cl)c1C(C)O (stereo not given in full)", "Ribonucleotide reductase (Homo sapiens, UniProt P23921+Q7LG56)", 6.70),
    ("Cc1c(Cl)ccc(F)c1[C@@H](C)[C@H](NS(=O)(=O)c1ncc(Br)cc1C(N)=O)c1n[nH]c(=O)o1", "Ribonucleotide reductase (Homo sapiens, UniProt P23921+Q7LG56)", 7.15),
    ("CC(=O)NC1CCOc2c(S(=O)(=O)N[C@H](c3n[nH]c(=O)o3)[C@H](C)c3c(F)ccc(C)c3C)ccc(Cl)c21 (stereo not given in full)", "Ribonucleotide reductase (Homo sapiens, UniProt P23921+Q7LG56)", 7.00),
    ("Cc1ccc(F)c([C@@H](C)[C@H](NS(=O)(=O)c2ccc3c(c2)C(=O)CCC3)c2n[nH]c(=O)o2)c1C", "Ribonucleotide reductase (Homo sapiens, UniProt P23921+Q7LG56)", 6.46),
    ("Cc1ccc(F)c([C@@H](C)[C@H](NS(=O)(=O)c2ccc(Cl)c(C(=O)N3C4CCC3COC4)n2)c2n[nH]c(=O)o2)c1C", "Ribonucleotide reductase (Homo sapiens, UniProt P23921+Q7LG56)", 7.15),
]

A. COc1cc(Cl)ccc1S(=O)(=O)N[C@H](c1n[nH]c(=O)o1)[C@H](C)c1c(F)ccc(-c2c[nH]nc2C)c1C
B. Cc1ccc(F)c([C@@H](C)[C@H](NS(=O)(=O)c2ccc(Br)cc2OC(F)(F)F)c2n[nH]c(=O)o2)c1C
Prompt: Hello, I am sorting some records. Could you say if A or B has the smaller pIC50 value? Let me know the label of the one you choose.
Response: A

a. Cc1c(Cl)ccc(F)c1[C@@H](C)[C@H](NS(=O)(=O)c1ccc(Cl)cc1C(N)=O)c1n[nH]c(=O)o1
b. Cc1ccc(F)c([C@@H](C)[C@H](NS(=O)(=O)c2ccc(Cl)cc2C(N)=S)c2n[nH]c(=O)o2)c1C
Prompt: Hello, I am sorting some records. Could you say if a or b has the smaller pIC50 value? Let me know the label of the one you choose.
Response: a
(a: 6.60, b: 7.30)

a. Cc1ccc(F)c([C@@H](C)[C@H](NS(=O)(=O)c2ccc([N+](=O)[O-])cc2)c2n[nH]c(=O)o2)c1C
b. Cc1ccc(F)c([C@@H](C)[C@H](NS(=O)(=O)c2cc(OCC(F)F)ccc2C(N)=O)c2n[nH]c(=O)o2)c1C
c. Cc1ccc(F)c([C@@H](C)[C@H](NS(=O)(=O)c2ncc(Cl)cc2C(=O)O)c2n[nH]c(=O)o2)c1C
d. Cc1ccc(F)c([C@@H](C)[C@H](NS(=O)(=O)c2ccc(Cl)c3c2OCCC3N)c2n[nH]c(=O)o2)c1C (stereo not given in full)
e. C[C@H](c1cccc2ccccc12)[C@H](NS(=O)(=O)c1ccc(Cl)cc1Cl)c1n[nH]c(=O)o1
Prompt: rank_up(items): orders items by reported pIC50 in ascending numerical order. Could you list the labels in the order requested?
Response: e, c, a, d, b

1. COc1cc(Cl)ccc1S(=O)(=O)N[C@H](c1n[nH]c(=O)o1)[C@H](C)c1c(F)ccc(-c2cnn(C3CCC3)c2)c1C
2. Cc1ccc(F)c([C@@H](C)[C@H](NS(=O)(=O)c2ccc3c(c2)CC(=O)N3)c2n[nH]c(=O)o2)c1C
3. Cc1ccc(F)c([C@@H](C)[C@H](NS(=O)(=O)c2ccc(Cl)c(C(=O)N(C)C)n2)c2n[nH]c(=O)o2)c1C
4. Cc1ccc(F)c([C@@H](C)[C@H](NS(=O)(=O)c2ccc(Br)cc2C(N)=O)c2n[nH]c(=S)o2)c1C
Prompt: Sort the 4 compounds by pIC50; largest first, smallest last. Could you list the labels in the order requested?
Response: 3, 4, 1, 2

###

# Experimental Target: Ribonucleotide reductase (Homo sapiens, UniProt P23921+Q7LG56)
# Protocol: Human RNR Inhibition Effect: The inhibitory activity against the ribonucleotide reduction reaction (hereinafter referred to as RNR reaction) of the test compound was determined by measuring the formation of deoxycytidine diphosphate (hereinafter referred to as dCDP) from cytidine diphosphate (hereinafter referred to as CDP) by the following method.Human M1 subunit and human M2 subunit (mutant …
Measure Name: IC50 (nM)

Check out these entries, answers already filled in.
# Compound, Measure Unit, IC50
rows = [
    ("Cc1ccc(F)c([C@@H](C)[C@H](NS(=O)(=O)c2ccc3[nH]nnc3c2)c2n[nH]c(=O)o2)c1C", "nM", 660),
    ("Cc1ccc(F)c([C@@H](C)[C@H](NS(=O)(=O)c2cc(C(C)(C)O)c(F)cc2C(N)=O)c2n[nH]c(=O)o2)c1C", "nM", 80),
    ("COc1ccccc1-c1ccc(C(N)=O)c(S(=O)(=O)N[C@H](c2n[nH]c(=O)o2)[C@H](C)c2c(F)ccc(C)c2C)c1", "nM", 250),
    ("COc1c(S(=O)(=O)N[C@H](c2n[nH]c(=O)o2)[C@H](C)c2c(F)ccc(C)c2C)ccc(Cl)c1C(C)OC(C)=O (stereo not given in full)", "nM", 170),
    ("COc1cc(N)ccc1S(=O)(=O)N[C@H](c1n[nH]c(=O)o1)[C@H](C)c1c(F)ccc2ccccc12", "nM", 260),
]

a. COc1nc(Cl)ccc1S(=O)(=O)N[C@H](c1n[nH]c(=O)o1)[C@H](C)c1c(F)ccc(C)c1C
b. Cc1ccc(F)c([C@@H](C)[C@H](NS(=O)(=O)c2ccc(Cl)c(-c3cnn(C)c3)c2)c2n[nH]c(=O)o2)c1C
c. Cc1ccc(F)c([C@@H](C)[C@H](NS(=O)(=O)c2ccc3[nH]c(=O)c(=O)[nH]c3c2)c2n[nH]c(=O)o2)c1C
d. Cc1c(C(F)(F)F)ccc(F)c1[C@@H](C)[C@H](NS(=O)(=O)c1ccc(Cl)cc1C(N)=O)c1n[nH]c(=O)o1
e. Cc1ccc(F)c([C@@H](C)[C@H](NS(=O)(=O)c2ccc(Cl)c(C(=O)N3CC4CCC(C3)O4)n2)c2n[nH]c(=O)o2)c1C
Prompt: rank_up(items): orders items by reported IC50 in ascending numerical order. Could you list the labels in the order requested?
Response: e, a, b, d, c
(e: 30 nM, a: 100 nM, b: 220 nM, d: 550 nM, c: 820 nM)

a. COc1cc(C#N)ccc1S(=O)(=O)N[C@H](c1n[nH]c(=O)o1)[C@H](C)c1c(F)ccc(C)c1C
b. C[C@H](c1cccc2c1CCCC2)[C@H](NS(=O)(=O)c1ccc(Cl)cn1)c1n[nH]c(=O)o1
Prompt: Hello, I am sorting some records. Could you say if a or b has the smaller IC50 value? Let me know the label of the one you choose.
Response: a

A. COc1cc(Cl)ccc1S(=O)(=O)N[C@H](c1n[nH]c(=S)[nH]1)[C@H](C)c1c(F)ccc(C)c1C
B. COc1cc(Cl)ccc1S(=O)(=O)N[C@H](c1noc(=O)[nH]1)[C@H](C)c1c(F)ccc(C)c1C
Prompt: Higher IC50: A or B ? Let me know the label of the one you choose.
Response: A
(A: 460 nM, B: 250 nM)

These data points were gathered from ChEMBL document CHEMBL5729675.
